- subject.of.test: T1, recombinant human C1r2s2 tetramer (human, UniProt P09871 16-688; P00736 18-705)
- T1 construct: C1s and C1r co-expressed in HEK293/FreeStyle 293-F and purified from conditioned medium
- T1 chain 1: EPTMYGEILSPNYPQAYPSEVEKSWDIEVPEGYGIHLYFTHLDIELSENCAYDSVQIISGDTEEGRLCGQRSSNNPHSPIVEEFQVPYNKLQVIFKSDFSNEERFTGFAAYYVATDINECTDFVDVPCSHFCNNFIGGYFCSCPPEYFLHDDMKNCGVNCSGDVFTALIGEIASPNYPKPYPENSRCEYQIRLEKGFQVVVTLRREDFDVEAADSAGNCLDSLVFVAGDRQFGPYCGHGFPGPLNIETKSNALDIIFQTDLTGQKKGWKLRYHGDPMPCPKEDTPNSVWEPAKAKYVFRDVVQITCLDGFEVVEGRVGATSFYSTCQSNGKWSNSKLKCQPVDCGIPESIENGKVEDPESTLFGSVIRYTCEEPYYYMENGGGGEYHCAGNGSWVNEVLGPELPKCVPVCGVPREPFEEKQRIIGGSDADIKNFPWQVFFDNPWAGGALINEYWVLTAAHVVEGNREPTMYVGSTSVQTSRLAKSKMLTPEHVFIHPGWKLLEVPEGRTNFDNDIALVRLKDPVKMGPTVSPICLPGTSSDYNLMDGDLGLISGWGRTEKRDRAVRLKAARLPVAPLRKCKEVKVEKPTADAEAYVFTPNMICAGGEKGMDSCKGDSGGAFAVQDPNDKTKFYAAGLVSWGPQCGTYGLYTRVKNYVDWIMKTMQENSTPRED
- T1 chain 2: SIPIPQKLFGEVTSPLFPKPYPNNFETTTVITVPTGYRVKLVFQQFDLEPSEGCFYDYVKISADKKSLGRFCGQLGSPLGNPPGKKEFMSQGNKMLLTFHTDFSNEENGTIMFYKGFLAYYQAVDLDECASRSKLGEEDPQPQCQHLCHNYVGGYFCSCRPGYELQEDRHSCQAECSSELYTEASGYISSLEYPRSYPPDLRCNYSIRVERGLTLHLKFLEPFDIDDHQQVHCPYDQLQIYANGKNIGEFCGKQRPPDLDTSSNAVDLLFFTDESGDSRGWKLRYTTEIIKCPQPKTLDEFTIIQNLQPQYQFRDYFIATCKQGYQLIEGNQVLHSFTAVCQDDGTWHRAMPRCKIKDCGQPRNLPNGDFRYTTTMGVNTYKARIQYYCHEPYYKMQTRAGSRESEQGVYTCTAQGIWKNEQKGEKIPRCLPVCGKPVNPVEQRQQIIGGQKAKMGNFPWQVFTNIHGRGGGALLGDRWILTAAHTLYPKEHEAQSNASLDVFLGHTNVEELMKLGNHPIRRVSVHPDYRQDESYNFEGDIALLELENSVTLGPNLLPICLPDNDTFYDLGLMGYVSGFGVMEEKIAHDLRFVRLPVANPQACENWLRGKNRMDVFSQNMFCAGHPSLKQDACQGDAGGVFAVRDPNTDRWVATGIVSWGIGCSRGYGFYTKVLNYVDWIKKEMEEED
- procedure.details: SPR (BIACORE T200), 37 C, Ab captured via anti-human Ig kappa, human C1r2s2 as analyte, pH 5.8
observed.property: pKd
Numbers only, as −log10 of the molar value.

Consider the following illustrative entries.
binder	pKd
COS0637pHv6-TT91R (antibody, V domains shown) VH: QVQLVESGGGVVQPGRSLRLSCAASGFSFSAYAMNWIRQPPGKGLEWIGLIYGSGHEFYASWAEERVTISVDTSKNQFSLKLSSVTAADTAVYYCARGRSKNYVSGFHLWGQGTLVTVSS VL: DIQMTQSPSSLSASVGDRVTITCQAQQILHDKRNLAWYQQKPGQPPKLLIYQASQLESGVPSRFSGSGSGTDFTLTISSLQPEDFATYYCHGEFSYESADLNTFGQGTKVEIKR	6.08
COS0637h-TT91R (antibody, human IgG1, V domains shown, Humanized COS0637cc; modified human IgG1 CH TT91R, human CL SK1) VH: QVQLVESGGGVVQPGRSLRLSCAASGFTFSAYAMNWIRQPPGKGLEWIGLIYGSGSTFYASWAKGRVTISVDTSKNQFSLKLSSVTAADTAVYYCARGRSVNYNSDFKLWGQGTLVTVSS VL: DIQMTQSPSSLSASVGDRVTITCQASQSLHDKKNLAWYQQKPGQPPKLLIYGASTLESGVPSRFSGSGSGTDFTLTISSLQPEDFATYYCQGEFSCSSADCNTFGQGTKVEIKR	6.44

With those in mind, consider the next binder.
Looking up COS0637pHv2-TT91R (antibody, V domains shown) VH: QVQLVESGGGVVQPGRSLRLSCAASGFRFSAYAMNWIRQPPGKGLEWIGLIYGKGSTFYASWAKERVTISVDTSKNQFSLKLSSVTAADTAVYYCARGRSVNYNSDFHLWGQGTLVTVSS VL: DIQMTQSPSSLSASVGDRVTITCQASQSLHDKKNLAWYQQKPGQPPKLLIYGASTLESGVPSRFSGSGSGTDFTLTISSLQPEDFATYYCQGEFSCSSADCNTFGQGTKVEIKR , I see its pKd listed as 6.23
